Quick list: log10 GI50 per entry.
- Protocol description: Growth inhibition of human Caki1 cells after 48 hrs by sulforhodamine B assay
- Assay type: functional
- Condition label: CAKI-1, 48 h
Log scale reminder: GI50 in µM, then log10 taken.

Ask | What does the data say about its log10 GI50? Entry: `COc1ccc(/C(C#N)=C/c2ccc3c(c2)OCCO3)cc1OC`
Reply | 0.47

Ask | What does the data say about its log10 GI50? Entry: `N#C/C(=C\c1cccc2ccccc12)c1ccc2c(c1)OCO2`
Reply | 0.62

Ask | What does the data say about its log10 GI50? Entry: `COc1ccc(/C=C(\C#N)c2ccc3c(c2)OCO3)c2ccccc12`
Reply | 0.31

Ask | What does the data say about its log10 GI50? Entry: `COc1cc(/C(C#N)=C/c2ccc3c(c2)OCCO3)cc(OC)c1OC`
Reply | -1.30

Ask | What does the data say about its log10 GI50? Entry: `COc1ccc(/C=C/c2cc(OC)c(OC)c(OC)c2)cc1`
Reply | 0.48

Ask | What does the data say about its log10 GI50? Entry: `N#C/C(=C\c1cc2ccccc2s1)c1ccc2c(c1)OCO2`
Reply | -1.30

###

- Protocol description: Growth inhibition of human Hs 578T cells after 48 hrs by sulforhodamine B assay
- Type: functional
Quick list: log10 of GI50 per entry.
Log scale reminder: GI50 in µM, then log10 taken.

Sample records with log10 of GI50:
INSERT INTO results (line_notation, endpoint_result) VALUES
  ('COc1ccc(/C=C(\C#N)c2ccc3c(c2)OCO3)cc1', -0.34),
  ('COc1ccc(/C(C#N)=C/c2ccc3c(c2)OCCO3)cc1OC', 0.75),
  ('COc1ccc(/C=C/c2cc(OC)c(OC)c(OC)c2)cc1', 0.49),
  ('COc1cc(/C(C#N)=C/c2ccc3c(c2)OCCO3)cc(OC)c1OC', -1.15),
  ('COc1ccc(/C=C(\C#N)c2ccc3c(c2)OCO3)c2ccccc12', 0.42);

Ask | What does the data say about its log10 of GI50? Entry: `N#C/C(=C\c1cccc2ccccc12)c1ccc2c(c1)OCO2`
Reply | 0.55

Ask | What does the data say about its log10 of GI50? Entry: `COc1ccc(/C=C(\C#N)c2ccc3c(c2)OCO3)c(OC)c1`
Reply | 0.56

Ask | What does the data say about its log10 of GI50? Entry: `N#C/C(=C\c1cc2ccccc2s1)c1ccc2c(c1)OCO2`
Reply | -1.10

###

- Tested on: NCI-H23
- Protocol description: Growth inhibition of human NCI-H23 cells at 10 uM after 48 hrs by sulforhodamine B assay
- Format: functional
- Condition label: NCI-H23, 48 h, values are per cent of control
Quick list: growth, % of control at 10 µM per entry.
Please state the value followed by its unit.

Sample records with growth, % of control at 10 µM:
INSERT INTO assay_data (line_notation, endpoint_result) VALUES
  ('N#C/C(=C\c1cccnc1Cl)c1ccc2c(c1)OCO2', '97.2%'),
  ('N#C/C(=C\c1ccc2ccccc2n1)c1ccc2c(c1)OCO2', '58.8%'),
  ('COc1ccc(/C=C(\C#N)c2ccc3c(c2)OCO3)c(OC)c1', '59.1%');

Ask | For the record `COc1ccc(/C=C(\C#N)c2ccc3c(c2)OCO3)c(Cl)c1OC` , what value of growth, % of control at 10 µM is listed for NCI-H23?
Reply | 85%

Ask | For the record `COc1cc(/C=C(\C#N)c2ccc3c(c2)OCO3)cc(OC)c1OC` , what value of growth, % of control at 10 µM is listed for NCI-H23?
Reply | 94.5%

Ask | For the record `COc1ccc(/C(C#N)=C/c2ccc3c(c2)OCCO3)cc1OC` , what value of growth, % of control at 10 µM is listed for NCI-H23?
Reply | 46.8%

Ask | For the record `N#C/C(=C\c1cc(Br)cc(Br)c1)c1ccc2c(c1)OCO2` , what value of growth, % of control at 10 µM is listed for NCI-H23?
Reply | 91.5%

Ask | For the record `N#C/C(=C\c1ccsc1)c1ccc2c(c1)OCO2` , what value of growth, % of control at 10 µM is listed for NCI-H23?
Reply | 106%

Ask | For the record `COc1ccc(/C(C#N)=C/c2ccc3c(c2)OCCO3)cc1` , what value of growth, % of control at 10 µM is listed for NCI-H23?
Reply | 78.3%
